# Tested on: KM12 colon
# METHOD: NCI-60 one-dose screen, 48 h (100 = growth as untreated, 0 = no growth, -100 = all killed)
# EXPERIMENTAL_CONTEXT: 10 µM unless noted
About 83,000 compounds went through this panel and 20% of them were active in at least one assay; those are over-represented in the sample as a whole.
Listing of recorded growth by entry.
Give just the number in %; leave the unit off.

Some solved entries appear below for comparison.
COMPOUND	RESULT_TYPE	OUTPUT_UNIT	VALUE
O=S(=O)(Nc1ccc(OC(F)F)cc1)c1ccc(-c2cnc(C3CC3)o2)cc1	growth	%	74.1
O=C1/C(=C/c2ccccc2)SC(=S)N1CCc1ccc(O)cc1	growth	%	87.8
O=C1/C(=C/c2cn(-c3ccccc3)nc2-c2ccccc2)SC(=S)N1CCc1ccccc1	growth	%	100
COc1cccc(-c2nc3sccn3c2-c2ccnc(NCCNS(=O)(=O)c3ccccc3)c2)c1	growth	%	22.2

# input for lookup
# get_value(readout='growth', item= O=C1Nc2ccc(Br)cc2C12Oc1ccccc1C1CC(c3ccc(F)cc3)=NN12 (stereo not given) ) 86.3

###

Listing of recorded growth by entry.
# Test system: MOLT-4 leukemia
# METHOD: NCI-60 one-dose screen, 48 h (100 = growth as untreated, 0 = no growth, -100 = all killed)
# EXPERIMENTAL_CONTEXT: 10 µM unless noted
This is part of a sample that, as a whole, favours compounds with a hit. Of some 83,000 tested, about 20% had one in any assay.
Give just the number in %; leave the unit off.

MOLECULE	growth [%]
CC(=O)c1cc2c(N)c(C(=O)Nc3cccc4ccccc34)sc2nc1C	24
Cc1cc(N2CCCC2)nc(NC2CCCC(Nc3ccnc4cc(Cl)ccc34)C2)n1 (stereo not drawn)	-20.8
Cc1nn(-c2cc(=O)[nH]c3ccccc23)c(N)c1C#N	106
CC(=O)c1cc2c(N)c(C(=O)Nc3cccc(F)c3C)sc2nc1C	79.1
c1ccc2[nH]c(-c3ccc(Nc4nc(N5CCCC5)nc5[nH]ncc45)cc3)nc2c1	-44.1
COc1cccc(-c2nc3sccn3c2-c2ccnc(NCCNS(=O)(=O)c3ccc(F)cc3)c2)c1	7.99
COc1ccc(-c2cc(Nc3ccnc(N4CCOCC4)n3)on2)cc1	21.2
CC[C@H]1OC(=O)[C@H](C)[C@@H](O[C@H]2C[C@@](C)(OC)[C@@H](O)[C@H](C)O2)[C@H](C)[C@@H](O[C@@H]2O[C@H](C)C[C@H](N(C)C)[C@H]2O)[C@](C)(O)C[C@H](C)CN(C)[C@H](C)[C@@H](O)[C@]1(C)O	103
NC(N)=N/N=C(/c1ccccc1)c1ccc(F)cc1	-10.1
O=C(N/N=C/c1c[nH]c2ccccc12)c1cc(-c2ccccc2)on1	69.5

Please state recorded growth (tested on MOLT-4 leukemia) of N#CN1CC[C@H](C(=O)Nc2cc3cc(C(N)=O)ccc3cn2)C1 -18.1

Next up: FC(F)(F)c1nc2c(NCc3ccc(-c4ccccc4)cc3)cccc2[nH]1 9

Next up: CC(C)C1=C[C@@]23CC[C@@H]4[C@](C)(CCC[C@@]4(C)C(=O)N4CCCNCC4)[C@H]2C[C@@H]1[C@H]1C(=O)CCC(=O)[C@H]13 96.5

###

# Test system: ACHN renal
# METHOD: NCI-60 one-dose screen, 48 h
# EXPERIMENTAL_CONTEXT: 10 µM unless noted
Compounds without any hit were thinned out: in the full panel of roughly 83,000, 20% have a hit. Activity calls are given as the source filed them. How the source made its calls: active means growth percent below 10; inactive means the rest.
Use one of these outcomes when replying: Y = active, N = inactive

Identify the outcome logged in this assay for the compound shown: O=C1/C(=C/c2cn(-c3ccccc3)nc2-c2ccccc2)SC(=S)N1CCc1ccccc1 N

Next up: CC(C)(C)CC(C)(C)c1ccc(OCCOCC[N+](C)(C)Cc2ccccc2)cc1 N
